Reference source for all entries: ChEMBL document CHEMBL3822422

assay: Cmax in rat plasma at 30 mg/kg, po measured on day 4; assay type: ADME, organism-based; design: dose 30 mg/kg, route oral
Measured attribute: Cmax (ng/mL)
// units = ng/mL; emit number, no label

Request: Given the compound `CN(c1ccc2[nH]ncc2c1)c1nc(-c2ccccn2)cs1` , what is its reported Cmax?
Result: 1930

* * *

Sequence of the target: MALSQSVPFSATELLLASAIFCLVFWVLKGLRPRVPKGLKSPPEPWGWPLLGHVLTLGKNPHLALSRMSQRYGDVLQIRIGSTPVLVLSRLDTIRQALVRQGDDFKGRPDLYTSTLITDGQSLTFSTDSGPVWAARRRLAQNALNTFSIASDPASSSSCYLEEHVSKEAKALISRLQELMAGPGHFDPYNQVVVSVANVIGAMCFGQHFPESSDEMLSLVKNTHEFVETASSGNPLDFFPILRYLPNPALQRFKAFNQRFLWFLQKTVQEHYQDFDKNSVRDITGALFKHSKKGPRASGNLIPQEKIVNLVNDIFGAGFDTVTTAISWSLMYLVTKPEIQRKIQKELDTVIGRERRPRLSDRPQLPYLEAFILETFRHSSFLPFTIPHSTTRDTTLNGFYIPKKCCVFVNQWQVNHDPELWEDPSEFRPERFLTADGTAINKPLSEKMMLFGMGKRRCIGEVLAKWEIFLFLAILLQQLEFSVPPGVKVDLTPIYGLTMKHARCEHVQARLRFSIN
Measured attribute: IC50
Returns: string containing the number followed by the unit.

CC(c1ccc2[nH]c(=O)sc2c1)c1ccn(-c2ccccn2)n1 (racemic)
8.68 µM

Proceeding to the next compound to report its IC50.
Request: Recorded IC50 for `CN(c1ccc2[nH]ncc2c1)c1nc(-c2ccccn2)cs1` , please?
Result: 0.222 µM

* * *

molecular target: Glutamate receptor 1 (Homo sapiens); assay: Antagonist activity at human iGluA1 receptor flip isoform expressed in CHO-S cells assessed as inhibition of glutamate-induced increase in intracellular calcium levels after 2 mins followed by cyclothiazide/glutamate addition by fluo-4 NW dye based fluorescence imaging plate reader method; format: cell-based
Reported IC50 is given for each of the following molecules.
Answer format: numeric, µM implied, no suffix.

Example cases with answers are listed next.
C[C@@H](c1ccc2[nH]c(=O)sc2c1)c1ccn(-c2ccc(F)cn2)n1
83.3
CC(c1ccc2[nH]c(=O)sc2c1)c1ccn(-c2ccccn2)n1 (racemic)
83.3
C[C@H](c1ccc2[nH]c(=O)sc2c1)c1ccn(-c2ccc(CCO)cn2)n1
9.26

Request: Which IC50 is listed for N#Cc1ccccc1-c1cc(-c2ccccn2)cn(-c2ccccc2)c1=O [PERAMPANEL] ?
Result: 6.51

Request: Try this molecule next: `C[C@H](c1ccc2[nH]c(=O)sc2c1)c1ccn(-c2ccc(OCCO)cn2)n1`
Result: 9.26

Request: Please answer likewise for `C[C@@H](c1ccc2[nH]c(=O)sc2c1)c1ccn(-c2ccc(CCC(C)(C)O)cn2)n1`
Result: 9.26

Request: Similarly, `C[C@H](c1ccc2[nH]c(=O)sc2c1)c1ccn(-c2ccccn2)n1` ?
Result: 9.26

Request: Can you check `C[C@@H](c1ccc2[nH]c(=O)sc2c1)c1ccn(-c2ccccn2)n1` next?
Result: 9.26

Request: Please answer likewise for `C[C@@H](c1ccc2[nH]c(=O)sc2c1)c1ccn(-c2ccc(OCCO)cn2)n1`
Result: 83.3

* * *

experiment: Cmax in rat plasma at 30 mg/kg, po measured on day 1; format: ADME, organism-based; parameters: dose 30 mg/kg, route oral
Measured attribute: Cmax (ng/mL)
Note: unit ng/mL is implicit; provide only the numeric part.

Request: Reported Cmax, molecule `CN(c1ccc2[nH]ncc2c1)c1nc(-c2ccccn2)cs1` : ____
Result: 3740

* * *

molecular target: Glutamate receptor 1 (Homo sapiens); assay: Antagonist activity at human iGluA1 receptor flop isoform expressed in CHO-S cells coexpressing TARP gamma-3 assessed as inhibition of glutamate-induced increase in intracellular calcium levels after 2 mins followed by cyclothiazide/glutamate addition by fluorescence imaging plate reader method; assay type: cell-based
Measured attribute: IC50 (nM)
Please reply with the bare figure in nM and do not write the unit itself.

Request: Please tell me: IC50 of `N#Cc1ccccc1-c1cc(-c2ccccn2)cn(-c2ccccc2)c1=O` , system Glutamate receptor 1 (Homo sapiens)?
Result: 243

* * *

assay: Toxicity in po dosed Sprague-Dawley rat assessed as motor impairment by inverted screen test; format: organism-based; details: in vivo
Measured attribute: TD50 (mg/kg)
Write it as a number; the unit mg/kg goes unstated.

Request: So what does the record say about TD50 for `C[C@@H](c1ccc2[nH]c(=O)sc2c1)c1ccn(-c2ccc(OCCO)cn2)n1` ?
Result: 3.8

* * *

molecular target: Glutamate receptor 1 (Homo sapiens, UniProt P42261); assay: Antagonist activity at human iGluA1 receptor flop isoform expressed in CHO-S cells coexpressing TARP gamma-8 and human EAAT3 assessed as inhibition of glutamate-induced increase in intracellular calcium levels after 2 mins followed by cyclothiazide/glutamate addition by fluo-4 AM dye based fluorescence imaging plate reader method; type: cell-based
Sequence (P42261 whole entry, canonical isoform): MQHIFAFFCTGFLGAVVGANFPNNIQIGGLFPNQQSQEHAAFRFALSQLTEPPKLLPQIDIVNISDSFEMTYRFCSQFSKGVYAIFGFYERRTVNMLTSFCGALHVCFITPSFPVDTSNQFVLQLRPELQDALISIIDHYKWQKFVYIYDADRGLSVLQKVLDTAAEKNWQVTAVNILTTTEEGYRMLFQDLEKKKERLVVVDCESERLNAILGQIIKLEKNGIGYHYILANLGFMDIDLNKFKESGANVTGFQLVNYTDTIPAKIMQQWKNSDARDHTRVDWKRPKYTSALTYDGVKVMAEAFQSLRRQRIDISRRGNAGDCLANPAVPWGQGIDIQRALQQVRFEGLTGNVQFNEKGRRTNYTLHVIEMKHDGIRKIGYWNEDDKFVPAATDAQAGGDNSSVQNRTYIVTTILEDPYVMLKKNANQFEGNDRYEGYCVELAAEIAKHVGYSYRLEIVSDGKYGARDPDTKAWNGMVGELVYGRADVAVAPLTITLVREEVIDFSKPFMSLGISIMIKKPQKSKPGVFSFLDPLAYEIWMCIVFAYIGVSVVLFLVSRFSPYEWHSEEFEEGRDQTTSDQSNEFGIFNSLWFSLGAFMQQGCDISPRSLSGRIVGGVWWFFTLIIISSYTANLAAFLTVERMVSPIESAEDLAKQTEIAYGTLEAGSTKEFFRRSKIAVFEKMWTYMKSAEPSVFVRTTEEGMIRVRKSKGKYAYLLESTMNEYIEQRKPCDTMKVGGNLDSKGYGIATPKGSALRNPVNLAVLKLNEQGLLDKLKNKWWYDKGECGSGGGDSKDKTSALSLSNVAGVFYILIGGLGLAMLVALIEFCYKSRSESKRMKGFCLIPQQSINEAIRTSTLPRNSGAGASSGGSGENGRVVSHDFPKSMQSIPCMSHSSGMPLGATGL
pIC50: −log10 of the molar value.
Values of pIC50 greater than or equal to 7 map to TRUE; values below map to FALSE.

Consider the following illustrative entries.
CN(c1ccc2[nH]ncc2c1)c1ccn(-c2ccccn2)n1
FALSE
C[C@H](c1ccc2[nH]c(=O)sc2c1)c1ccn(-c2ccccn2)n1
FALSE

Request: Given `Cn1ccc(CN(c2ccc3[nH]ncc3c2)c2nc(-c3ccccn3)cs2)n1` , state whether its pIC50 is at least 7.
Result: TRUE

Request: Do the same for `C[C@H](c1ccc2[nH]c(=O)sc2c1)c1ccn(-c2ccc(CCO)cn2)n1` please
Result: FALSE

Request: Please answer likewise for `CCOCCN(c1ccc2[nH]c(=O)sc2c1)c1nc(-c2ccccn2)cs1`
Result: TRUE

Request: Thanks! And `CN(c1ccc(O)cc1)c1nc(-c2ccccn2)cs1` ?
Result: FALSE

Request: Moving on to the next compound: `C[C@@H](c1ccc2[nH]c(=O)sc2c1)c1ccn(-c2ccccn2)n1`
Result: TRUE

* * *

test: Clearance in rat; format: ADME, organism-based; details: in vivo
This listing pairs molecules with measured clearance.
Provide the reading as a plain figure in mL/min/kg.

Please review the following examples before continuing.
CN(c1ccc2[nH]c(=O)sc2c1)c1nc(-c2ccccn2)cs1
96.6
CN(c1ccc(O)cc1)c1nc(-c2ccccn2)cs1
234
C[C@@H](c1ccc2[nH]c(=O)sc2c1)c1ccn(-c2ccc(CCC(C)(C)O)cn2)n1
6
C[C@H](c1ccc2[nH]c(=O)sc2c1)c1ccn(-c2ccccn2)n1
144
CN(c1ccc2[nH]ncc2c1)c1ccn(-c2ccccn2)n1
61.3
C[C@@H](c1ccc2[nH]c(=O)sc2c1)c1ccn(-c2ccc(CCO)cn2)n1
16.3
CN(c1ccc2[nH]ncc2c1)c1nc(-c2ccccn2)cs1
71.5
C[C@@H](c1ccc2[nH]c(=O)sc2c1)c1ccn(-c2ccccn2)n1
99
C[C@@H](c1ccc2[nH]c(=O)sc2c1)c1ccn(-c2ccc(F)cn2)n1
42.2
C[C@@H](c1ccc2[nH]c(=O)sc2c1)c1ccn(-c2ccc(OCCO)cn2)n1
11.4

We now examine a further molecule.
Request: Sample CC(c1ccc2[nH]c(=O)sc2c1)c1ccn(-c2ccccn2)n1 (racemic) — what was its clearance?
Result: 115

* * *

tested on: UGT; test: Drug metabolism assessed as UGT-mediated compound glucuronidation in rat liver microsomes; type: ADME; conditions: read-out: Drug metabolism
Measured attribute: metabolised (%)
Please respond with the number in % and leave the unit unwritten.

Request: Consider the compound `CN(c1ccc(O)cc1)c1nc(-c2ccccn2)cs1` and give its measured metabolised.
Result: 99

* * *

assay: Volume of distribution at steady state in rat at 1 mg/kg, iv; type: ADME, organism-based; details: in vivo, read-out: Vdss
Measured attribute: Vd (L/kg)
The reply should contain only the number, in L/kg.

Request: Give the measured Vd of `C[C@@H](c1ccc2[nH]c(=O)sc2c1)c1ccn(-c2ccc(OCCO)cn2)n1` .
Result: 1.28

* * *

Reported IC50 by item:
target: Glutamate receptor 1 (Homo sapiens); assay: Antagonist activity at human iGluA1 receptor flip isoform expressed in CHO-S cells assessed as inhibition of glutamate-induced increase in intracellular calcium levels after 2 mins followed by cyclothiazide/glutamate addition by fluo-4 NW dye based fluorescence imaging plate reader method; assay type: cell-based

Recorded IC50, per entry:
CN(c1ccc2[nH]c(=O)sc2c1)c1nc(-c2ccccn2)cs1
> 83.3 µM
CN(c1ccc2[nH]ncc2c1)c1nc(-c2ccccn2)cs1
> 83.3 µM

Moving on to the next compound.
Request: Name the reported IC50 value associated with the compound `CN(c1ccc(O)cc1)c1nc(-c2ccccn2)cs1`
Result: > 83.3 µM

* * *

// reported IC50 per item
target: UniProtKB P42261; experiment: Antagonist activity at human iGluA1 receptor flop isoform expressed in CHO-S cells coexpressing TARP gamma-8 and human EAAT3 assessed as inhibition of glutamate-induced increase in intracellular calcium levels after 2 mins followed by cyclothiazide/glutamate addition by fluo-4 AM dye based fluorescence imaging plate reader method; assay type: cell-based
Write it as a number; the unit nM goes unstated.

Would you please look over these solved cases?
CC(c1ccc2[nH]c(=O)sc2c1)c1ccn(-c2ccccn2)n1 (racemic)
122
CN(c1ccc2[nH]c(=O)sc2c1)c1nc(-c2ccccn2)cs1
70

Request: Fill blank: measured IC50 of the molecule `C[C@@H](c1ccc2[nH]c(=O)sc2c1)c1ccn(-c2ccc(CCC(C)(C)O)cn2)n1` is ____.
Result: 160
